Measured values drawn from PubChem BioAssay (Tox21) for this set.

# Measured Target: Estrogen receptor (Homo sapiens)
# Assay Summary: qHTS assay to identify small molecule antagonists of the estrogen receptor alpha (ER-alpha) signaling pathway (AID 743069); further: on the % scale 0 is the no-effect control and ±100 the full control effect
# Assay Setup: HEK293 ER-alpha-UAS-bla, beta-lactamase ratio, antagonist mode; series mostly up to 69.4 µM
Results filed as inconclusive are left out. Activity calls are given as the source filed them. The call rests on the fitted dose curve; in most records, active means well fitted curve in the direction sought with a large enough effect in the signal ratio in the repeat runs (not every such curve was filed as active); inconclusive means weak or mixed curves, or effect the other way; inactive means no such curve, though single readings can be large or run the other way; the % refers to the signal ratio.
Result category, one only: active, inactive

{"Compound": "CC(=O)CCC(C)=O", "Assigned Label": "inactive"}

Please look at the following compound next.
Tell me the assay call for BrCCCCBr please.
inactive

###

# Assay Summary: qHTS assay to identify small molecule agonists of the retinoic acid receptor (RAR) signaling pathway (AID 1159553); on activation: on the % scale 0 is the no-effect control and ±100 the full control effect
# Assay Setup: C3RL4 RARE luciferase reporter, agonist, 6 h; series mostly up to 73.3 µM
# Source text: National Center for Advancing Translational Sciences [NCATS] NIH Chemical Genomics Center [NCGC] U.S. Environmental Protection Agency [EPA] National Institutes of Environmental Health Sciences [NIEHS] National Toxicology Program [NTP] […]
Results filed as inconclusive are left out. Activity calls are given as the source filed them. Calls come from the whole dose curve; as a rule, active = well fitted activation curve with a large enough effect in the repeat runs; inconclusive = weak or mixed curves, or effect the other way; inactive = no such curve, though single readings can be large or run the other way.
Write down one outcome, taken from class 1 for active, class 0 for inactive

{"Compound": "C(=NC1CCCCC1)=NC1CCCCC1", "Assigned Label": "class 0"}
{"Compound": "NS(=O)(=O)C(F)(F)C(F)(F)C(F)(F)C(F)(F)C(F)(F)C(F)(F)C(F)(F)C(F)(F)F", "Assigned Label": "class 0"}
{"Compound": "O=C(O)C(F)(F)C(F)(F)C(F)(F)C(F)(F)C(F)(F)C(F)(F)C(F)(F)C(F)(F)C(F)(F)F", "Assigned Label": "class 0"}
{"Compound": "CO[C@@H]1[C@H](OC(=O)NC(=O)CCl)CC[C@]2(CO2)[C@H]1[C@@]1(C)O[C@@H]1CC=C(C)C", "Assigned Label": "class 0"}

Name the outcome recorded for CCOP(=S)(OCC)SCn1nnc2ccccc2c1=O in the assay.
class 0

Dear colleague, could you share the recorded outcome for Cc1ccc(-c2c(Cl)nc(C#N)n2S(=O)(=O)N(C)C)cc1 when you have a moment?
class 1

Which result was noted for this compound in the test: CCOC(=O)COc1cc(-c2nn(C)c(OC(F)F)c2Cl)c(F)cc1Cl
class 0

Fill in: this test's call for COc1cc(Cl)c(OC)cc1Cl is ___
class 0

// return assay outcome for Nc1nc(N)nc(N)n1
class 0

###

# Measured Target: Thyrotropin receptor (Homo sapiens) (UniProt P16473)
# Sequence (P16473 whole entry, looked up): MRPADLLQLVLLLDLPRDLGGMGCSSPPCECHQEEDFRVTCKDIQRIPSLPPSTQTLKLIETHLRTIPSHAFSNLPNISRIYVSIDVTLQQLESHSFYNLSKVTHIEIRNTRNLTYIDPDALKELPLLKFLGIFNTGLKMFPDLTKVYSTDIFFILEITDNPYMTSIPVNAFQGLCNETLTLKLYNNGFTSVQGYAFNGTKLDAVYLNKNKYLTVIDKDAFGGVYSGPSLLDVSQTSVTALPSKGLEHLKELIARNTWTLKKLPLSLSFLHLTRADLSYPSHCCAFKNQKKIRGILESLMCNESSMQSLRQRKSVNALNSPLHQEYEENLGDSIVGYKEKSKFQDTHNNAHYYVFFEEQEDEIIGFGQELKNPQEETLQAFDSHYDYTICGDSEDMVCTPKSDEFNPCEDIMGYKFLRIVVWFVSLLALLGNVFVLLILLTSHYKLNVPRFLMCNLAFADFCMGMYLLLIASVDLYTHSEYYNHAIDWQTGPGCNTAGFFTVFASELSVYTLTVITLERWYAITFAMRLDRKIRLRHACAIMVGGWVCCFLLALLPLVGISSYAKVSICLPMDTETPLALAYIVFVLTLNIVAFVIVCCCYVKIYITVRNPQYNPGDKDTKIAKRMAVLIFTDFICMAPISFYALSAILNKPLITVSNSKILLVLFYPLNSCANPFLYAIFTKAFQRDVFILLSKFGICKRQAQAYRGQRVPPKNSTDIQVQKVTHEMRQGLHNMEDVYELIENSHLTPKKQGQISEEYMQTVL
# Assay Summary: qHTS assay to identify small molecule agonists of the thyroid stimulating hormone receptor (TSHR) signaling pathway (AID 1224843); further: nearly all actives have a fitted effect of over 45% in size
# Assay Setup: TSHR-HEK293 cells, cAMP HTRF, agonist mode, 30 min; series mostly up to 92.4 µM
Results filed as inconclusive are left out. Active and inactive are the calls of the source. Calls come from the whole dose curve.
The reply should name one outcome from active, inactive

Observe how each entry below is paired with its result.
{"Molecule": "Brc1ccc(Oc2ccccc2)cc1", "Assigned Label": "active"}
{"Molecule": "ClP(Cl)(Cl)(Cl)Cl", "Assigned Label": "inactive"}
{"Molecule": "C=CC(=O)OCC(C)O (stereo not drawn)", "Assigned Label": "inactive"}
{"Molecule": "O=S(=O)(Cl)c1ccccc1", "Assigned Label": "inactive"}
{"Molecule": "BrCC(Br)C1CCC(Br)C(Br)C1 (stereo not drawn)", "Assigned Label": "active"}
{"Molecule": "CCOP(O)OCC", "Assigned Label": "inactive"}
{"Molecule": "CCOc1nc(F)cc2nc(S(=O)(=O)Nc3c(Cl)cccc3Cl)nn12", "Assigned Label": "inactive"}
{"Molecule": "C[C@@H]1CC[C@H]2[C@@H](C)C(=O)O[C@@H]3O[C@@]4(C)CC[C@@H]1[C@]32OO4", "Assigned Label": "inactive"}

Can you look up the reported call for C=CC(C)=O for me?
inactive

Hi, do you know how CCN(C)N=O came out in this test?
inactive

Lab log entry: N#Cc1ccc(Cl)cc1 — outcome as called in the assay?
inactive

Which outcome was assigned to CC1CC(CC2CCC(N)C(C)C2)CCC1N (stereo not drawn) in this test?
inactive

Returns: the outcome recorded for CCCCCCCCCCOC(=O)c1ccccc1C(=O)OCCCCCCCCCC in this assay.
inactive
